- TARGET_OF_ASSAY: UniProtKB O14842
- Sequence (O14842 whole entry): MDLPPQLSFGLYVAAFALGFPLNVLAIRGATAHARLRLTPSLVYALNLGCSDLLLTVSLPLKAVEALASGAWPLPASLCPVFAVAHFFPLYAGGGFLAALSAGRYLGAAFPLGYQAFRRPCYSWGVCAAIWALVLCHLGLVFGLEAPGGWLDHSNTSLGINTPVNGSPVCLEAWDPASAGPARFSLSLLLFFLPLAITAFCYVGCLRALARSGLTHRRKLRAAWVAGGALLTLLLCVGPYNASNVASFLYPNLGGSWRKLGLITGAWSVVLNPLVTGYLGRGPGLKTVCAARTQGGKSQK
- EXPERIMENTAL_DETAILS: Inositol phosphate accumulation assay (A9_GPR40 cells)
- Assay type: cell-based
- Set-up: expressed in transfected cells; host or cells: CHO cells stably transfected with GPR40 and aequorin
- COND: inositol phosphate assay, A9_GPR40 cells, 1 hour; read-out: IP3 EC50
pEC50: −log10 of the molar value.
Quick reference: pEC50 of the listed items.

Previously resolved entries follow.
{"COMPOUND": "COc1ccc(F)c(-c2ccc(COc3cccc([C@@H](CC(=O)O)C4CC4)c3)cc2[C@H]2CCC[C@@H]2C)c1 (single isomer, unassigned)", "MEASURED_ATTRIBUTE": "pEC50", "RESULT": "7.00 to 8.00"}
{"COMPOUND": "CCC(CC(=O)O)c1cccc(OCc2ccc(-c3cc(OC)ccc3F)c(C3=CCCC3(C)C)c2)c1 (single isomer, unassigned)", "MEASURED_ATTRIBUTE": "pEC50", "RESULT": "7.00 to 8.00"}

Q: Checklist item: pEC50 tested on UniProtKB O14842, entry COCCO[C@H](c1cc(COc2cccc([C@@H](CC(=O)O)C3CC3)c2F)ccc1-c1ccccc1F)C(C)(C)C (single isomer, unassigned) , value?
Ans: 7.00 to 8.00

Q: Checklist item: pEC50 tested on UniProtKB O14842, entry CCCC(CC(=O)O)c1cccc(OCc2ccc(-c3cccc(OC)c3)c(C3CCCC3(C)C)c2)c1 (single isomer, unassigned) , value?
Ans: > 8.00

Q: Checklist item: pEC50 tested on UniProtKB O14842, entry CCO[C@H](c1cc(COc2cccc([C@@H](CC(=O)O)C3CC3)c2F)ccc1-c1ccccc1F)C(C)(C)C (single isomer, unassigned) , value?
Ans: 7.00 to 8.00

Q: Checklist item: pEC50 tested on UniProtKB O14842, entry CCC(C)(C)C(OC)c1cc(COc2cccc(C(CC(=O)O)CC3CC3)c2)ccc1-c1cc(OC)ccc1F (single isomer, unassigned) , value?
Ans: > 8.00

Q: Checklist item: pEC50 tested on UniProtKB O14842, entry COc1cc(-c2cc(F)c(COc3cccc([C@@H](CC(=O)O)C4CC4)c3)cc2[C@H]2CCCC2(C)C)c(F)cn1 (single isomer, unassigned) , value?
Ans: > 8.00

Recorded values, source patent US8030354B2.
